Tested on: Escherichia coli TOP10
Experiment: shrunken log2 fold change of peptide-encoding DNA abundance (4.5 h post-induction vs induction); higher = less antimicrobial activity (less host growth inhibition)
Conditions: time post-induction: 4.5 h; library: site-saturation at positions 5, 18, 19, 20
Hi there, I'd appreciate the recorded shrunken log2 fold change for every entry that follows.
Just the number, please.

Input line: Item: `RRIRERPPRLPRPRPRPLAPPRP` Test system: Escherichia coli TOP10 Read-out: shrunken log2 fold change Value: ?
Output line: 0.101

Input line: Same again, this time with `RRIRWRPPRLPRPRPRPTADPRP`
Output line: 1.51

Input line: Same again, this time with `RRIRMRPPRLPRPRPRPSELPRP`
Output line: 0.12

Input line: Same again, this time with `RRIRLRPPRLPRPRPRPQLYPRP`
Output line: -0.12

Input line: Same again, this time with `RRIRIRPPRLPRPRPRPPMAPRP`
Output line: -0.256

Input line: Same again, this time with `RRIRDRPPRLPRPRPRPQPNPRP`
Output line: 0.072

Input line: Same again, this time with `RRIRKRPPRLPRPRPRPWQSPRP`
Output line: 0.0203

Input line: Same again, this time with `RRIRDRPPRLPRPRPRPFMQPRP`
Output line: 0.0183

Input line: Same again, this time with `RRIRLRPPRLPRPRPRPDPRPRP`
Output line: 0.603

Input line: Same again, this time with `RRIRLRPPRLPRPRPRPSVGPRP`
Output line: 0.101

Input line: Same again, this time with `RRIRIRPPRLPRPRPRPRADPRP`
Output line: 0.0888

Input line: Same again, this time with `RRIRMRPPRLPRPRPRPCTFPRP`
Output line: -0.209

###

System: Escherichia coli TOP10;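 note: peptides expressed intracellularly from a pBAD plasmid library in pooled LB shake-flask culture, induced with 0.3% L-arabinose, DNA abundance read by NGS, three biological replicates, DESeq2 with apeglm shrinkage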
Test: shrunken log2 fold change of peptide-encoding DNA abundance (4.5 h post-induction vs induction); higher = less antimicrobial activity (less host growth inhibition)
Conditions: time post-induction: 4.5 h; library: site-saturation at positions 5, 18, 19, 20
measurement.kind: shrunken log2 fold change
Just the number, please.

Input line: Give the measured shrunken log2 fold change of `RRIRYRPPRLPRPRPRPVFCPRP` .
Output line: -0.419

Input line: Same again, this time with `RRIRGRPPRLPRPRPRPNDEPRP`
Output line: 0.482

Input line: Same again, this time with `RRIRHRPPRLPRPRPRPTCIPRP`
Output line: -0.147

Input line: Same again, this time with `RRIRDRPPRLPRPRPRPWHQPRP`
Output line: -0.0511

Input line: Same again, this time with `RRIRDRPPRLPRPRPRPGDDPRP`
Output line: 0.636

Input line: Same again, this time with `RRIRYRPPRLPRPRPRPVMAPRP`
Output line: -0.335

Input line: Same again, this time with `RRIRCRPPRLPRPRPRPETTPRP`
Output line: 0.394

Input line: Same again, this time with `RRIRQRPPRLPRPRPRPNTNPRP`
Output line: -0.47

Input line: Same again, this time with `RRIRTRPPRLPRPRPRPHWDPRP`
Output line: -0.245

Input line: Same again, this time with `RRIRKRPPRLPRPRPRPTCFPRP`
Output line: 0.259

Input line: Same again, this time with `RRIRTRPPRLPRPRPRPSAGPRP`
Output line: -0.0241

Input line: Same again, this time with `RRIRRRPPRLPRPRPRPNYTPRP`
Output line: -0.44

Input line: Same again, this time with `RRIRERPPRLPRPRPRPIKYPRP`
Output line: -0.351

Input line: Same again, this time with `RRIRTRPPRLPRPRPRPVVYPRP`
Output line: -0.418

Input line: Same again, this time with `RRIRDRPPRLPRPRPRPMCVPRP`
Output line: 0.101

Input line: Same again, this time with `RRIRARPPRLPRPRPRPHGKPRP`
Output line: 0.175

Input line: Same again, this time with `RRIRFRPPRLPRPRPRPEHTPRP`
Output line: -0.213

Input line: Same again, this time with `RRIRFRPPRLPRPRPRPDFIPRP`
Output line: -0.395

Input line: Same again, this time with `RRIRNRPPRLPRPRPRPVEEPRP`
Output line: 0.0471

Input line: Same again, this time with `RRIRFRPPRLPRPRPRPKYRPRP`
Output line: 0.225

Input line: Same again, this time with `RRIRSRPPRLPRPRPRPKIPPRP`
Output line: 1.16

Input line: Same again, this time with `RRIRVRPPRLPRPRPRPQNVPRP`
Output line: -0.51

Input line: Same again, this time with `RRIRRRPPRLPRPRPRPWVIPRP`
Output line: -0.125
